# MEASURED TARGET: Peroxisome proliferator-activated receptor delta (Homo sapiens)
# EXPERIMENT DESCRIPTION: Agonist activity at human recombinant PPARdelta by GAL4 transactivation assay
# Type: functional
# CONDITION LABEL: read-out: EC50
MEASURED PROPERTY: EC50 (µM)

Past entries and their recorded results:
{"COMPOUND": "CC(Oc1cccc(CCN(CCCOc2ccccc2)c2nc3ccccc3o2)c1)C(=O)O (configuration not stated)", "OUTPUT UNIT": "µM", "EC50": 2.3}
{"COMPOUND": "CCC(Oc1cccc(CN(CCCOc2ccc3c(c2)OCO3)c2nc3ccccc3o2)c1)C(=O)O (configuration not stated)", "OUTPUT UNIT": "µM", "EC50": 1.7}
{"COMPOUND": "CCC(Oc1cccc(CN(CCCOc2ccc(F)c(F)c2)c2nc3ccccc3o2)c1)C(=O)O (configuration not stated)", "OUTPUT UNIT": "µM", "EC50": 1.3}
{"COMPOUND": "CC(C)(Oc1cccc(CN(CCCOc2ccccc2)c2nc3ccccc3o2)c1)C(=O)O", "OUTPUT UNIT": "µM", "EC50": 1.4}

I. CCC(Oc1cccc(CN(CCCOc2ccc(C)c(C)c2)c2nc3ccccc3o2)c1)C(=O)O (configuration not stated)
II. CCC(Oc1cccc(CN(CCCOc2ccccc2)c2nc3cc(O)ccc3o2)c1)C(=O)O (configuration not stated)
III. CC[C@H](Oc1cccc(CN(CCCOc2ccc(F)cc2)c2nc3ccccc3o2)c1)C(=O)O
IV. CCC(Oc1cccc(CN(CCCOc2ccccc2)c2nc3cc(C)ccc3o2)c1)C(=O)O (configuration not stated)
V. CCC(Oc1cccc(CN(CCCOc2ccccc2)c2nc3cccc(F)c3o2)c1)C(=O)O (configuration not stated)
Sort (5 compounds) by EC50: min first. Give the labels in the order specified.
II, I, III, IV, V

a. CCC(Oc1cccc(CN(CCCOc2cccc([N+](=O)[O-])c2)c2nc3ccccc3o2)c1)C(=O)O (configuration not stated)
b. CCC(Oc1cccc(CN(CCCOc2ccccc2)c2nc3cc(C(F)(F)F)ccc3o2)c1)C(=O)O (configuration not stated)
c. CCC(Oc1cccc(CN(CCCOc2ccc(F)cc2F)c2nc3ccccc3o2)c1)C(=O)O (configuration not stated)
d. CC(Oc1cccc(CN(CCCOc2ccccc2)c2nc3ccccc3o2)c1)C(=O)O (configuration not stated)
Hey, quick one: sort these by EC50, largest value first please. Give the labels in the order specified.
c, d, a, b
(c: 6.5 µM, d: 2.7 µM, a: 1.4 µM, b: 0.16 µM)

---

# MEASURED TARGET: Peroxisome proliferator-activated receptor alpha (Homo sapiens, UniProt Q07869)
# Sequence (Q07869 whole entry, the tested form may be a part): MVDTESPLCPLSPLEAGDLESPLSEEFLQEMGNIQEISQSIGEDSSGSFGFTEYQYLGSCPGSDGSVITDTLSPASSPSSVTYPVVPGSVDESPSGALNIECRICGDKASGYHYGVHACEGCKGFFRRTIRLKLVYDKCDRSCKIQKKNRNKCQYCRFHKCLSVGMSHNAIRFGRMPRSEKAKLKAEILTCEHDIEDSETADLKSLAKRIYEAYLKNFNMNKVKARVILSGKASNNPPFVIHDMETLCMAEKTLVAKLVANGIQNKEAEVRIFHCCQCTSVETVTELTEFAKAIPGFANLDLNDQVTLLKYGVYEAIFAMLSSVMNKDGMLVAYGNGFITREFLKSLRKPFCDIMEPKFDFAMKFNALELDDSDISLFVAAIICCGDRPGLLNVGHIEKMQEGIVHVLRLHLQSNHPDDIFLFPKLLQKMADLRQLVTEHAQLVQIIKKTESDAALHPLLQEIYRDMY
# EXPERIMENT DESCRIPTION: Agonist activity at human recombinant PPARalpha by GAL4 transactivation assay
# Assay type: functional
# CONDITION LABEL: read-out: EC50
pEC50: −log10 of the molar value.
MEASURED PROPERTY: pEC50

I. CC(Oc1cccc(CCN(CCCOc2ccccc2)c2nc3ccccc3o2)c1)C(=O)O (stereo unspecified)
II. CCC(Oc1cccc(CN(CCCOc2ccccc2)c2nc3cc(O)ccc3o2)c1)C(=O)O (stereo unspecified)
Kindly compare I with II and tell me which has the lower pEC50 figure. Reply briefly: the label of your chosen item.
II

---

# MEASURED TARGET: Peroxisome proliferator-activated receptor gamma (Homo sapiens)
# Sequence (P37231 whole entry, the tested form may be a part): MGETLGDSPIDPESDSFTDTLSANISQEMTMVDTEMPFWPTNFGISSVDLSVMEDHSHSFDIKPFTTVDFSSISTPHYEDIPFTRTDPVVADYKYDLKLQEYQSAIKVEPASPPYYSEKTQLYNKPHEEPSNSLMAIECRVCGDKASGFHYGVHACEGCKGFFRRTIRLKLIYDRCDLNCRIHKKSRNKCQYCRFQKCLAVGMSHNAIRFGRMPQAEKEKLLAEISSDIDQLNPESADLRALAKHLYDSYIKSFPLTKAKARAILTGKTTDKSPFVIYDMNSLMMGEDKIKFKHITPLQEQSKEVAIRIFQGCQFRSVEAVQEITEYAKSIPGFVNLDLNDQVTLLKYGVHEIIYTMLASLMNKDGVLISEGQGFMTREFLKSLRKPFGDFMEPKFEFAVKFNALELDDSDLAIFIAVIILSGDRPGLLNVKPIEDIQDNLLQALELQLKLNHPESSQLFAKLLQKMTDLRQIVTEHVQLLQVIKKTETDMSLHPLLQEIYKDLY
# EXPERIMENT DESCRIPTION: Agonist activity at human recombinant PPARgamma by GAL4 transactivation assay
# Assay type: functional
# CONDITION LABEL: read-out: EC50
pEC50: −log10 of the molar value.
MEASURED PROPERTY: pEC50

{"COMPOUND": "CCC(Oc1cccc(CN(CCCOc2ccc(O)cc2)c2nc3ccccc3o2)c1)C(=O)O (centres undefined)", "MEASURED": 5.85}
{"COMPOUND": "CC[C@H](Oc1cccc(CN(CCCOc2ccc(OC)cc2)c2nc3ccccc3o2)c1)C(=O)O", "MEASURED": 5.88}
{"COMPOUND": "CC(C)(Oc1cccc(CCCN(CCOc2ccccc2)c2nc3ccccc3o2)c1)C(=O)O", "MEASURED": 7.00}
{"COMPOUND": "CCC(Oc1cccc(CN(CCCOc2ccccc2)c2nc3ccc(F)cc3o2)c1)C(=O)O (centres undefined)", "MEASURED": 5.96}

a. CC(C)(Oc1cccc(CN(CCOc2ccccc2)c2nc3ccccc3o2)c1)C(=O)O
b. CCC(Oc1cccc(CN(CCCOc2ccccc2)c2nc3cc(C(F)(F)F)ccc3o2)c1)C(=O)O (centres undefined)
Kindly compare a with b and tell me which has the lower pEC50 figure. Reply briefly: the label of your chosen item.
a
(a: 5.68, b: 6.40)

---

# MEASURED TARGET: Peroxisome proliferator-activated receptor delta (Homo sapiens, UniProt Q03181)
# Sequence (Q03181 whole entry, the tested form may be a part): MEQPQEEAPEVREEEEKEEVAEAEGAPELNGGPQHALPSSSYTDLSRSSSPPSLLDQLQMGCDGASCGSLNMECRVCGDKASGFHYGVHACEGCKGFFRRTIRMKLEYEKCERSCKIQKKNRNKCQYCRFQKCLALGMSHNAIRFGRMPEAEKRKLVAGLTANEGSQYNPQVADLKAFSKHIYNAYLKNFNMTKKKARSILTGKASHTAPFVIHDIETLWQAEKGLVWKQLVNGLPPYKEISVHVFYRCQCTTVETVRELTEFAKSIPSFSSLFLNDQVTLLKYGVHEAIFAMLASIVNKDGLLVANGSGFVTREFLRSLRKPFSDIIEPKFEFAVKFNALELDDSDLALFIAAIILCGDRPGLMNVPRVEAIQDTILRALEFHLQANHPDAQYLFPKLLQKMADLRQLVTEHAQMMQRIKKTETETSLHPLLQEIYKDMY
# EXPERIMENT DESCRIPTION: Agonist activity at human recombinant PPARdelta by GAL4 transactivation assay
# Format: functional
# CONDITION LABEL: read-out: EC50
MEASURED PROPERTY: EC50 (µM)

Past entries and their recorded results:
{"COMPOUND": "CCC(Oc1cccc(CN(CCCOc2ccccc2)c2nc3ccc(F)cc3o2)c1)C(=O)O (centres undefined)", "MEASURED TARGET": "Peroxisome proliferator-activated receptor delta (Homo sapiens, UniProt Q03181)", "EC50 (µM)": 1.9}
{"COMPOUND": "CC[C@H](Oc1cccc(CN(CCCOc2ccccc2)c2nc3ccccc3o2)c1)C(=O)O", "MEASURED TARGET": "Peroxisome proliferator-activated receptor delta (Homo sapiens, UniProt Q03181)", "EC50 (µM)": 1.66}
{"COMPOUND": "CC[C@@H](Oc1cccc(CN(CCCOc2ccc(OC)cc2)c2nc3ccccc3o2)c1)C(=O)O [PEMAFIBRATE]", "MEASURED TARGET": "Peroxisome proliferator-activated receptor delta (Homo sapiens, UniProt Q03181)", "EC50 (µM)": 1.58}

P. CC[C@H](Oc1cccc(CN(CCCOc2ccc(OC)cc2)c2nc3ccccc3o2)c1)C(=O)O
Q. CCC(Oc1cccc(CN(CCCOc2ccc(C)cc2)c2nc3ccccc3o2)c1)C(=O)O (centres undefined)
Kindly compare P with Q and tell me which has the lower EC50 figure. Reply briefly: the label of your chosen item.
Q

---

# MEASURED TARGET: Peroxisome proliferator-activated receptor alpha (Homo sapiens)
# EXPERIMENT DESCRIPTION: Agonist activity at human recombinant PPARalpha by GAL4 transactivation assay
# Assay type: functional
# CONDITION LABEL: read-out: EC50
MEASURED PROPERTY: EC50 (nM)

Past entries and their recorded results:
{"COMPOUND": "CCC(Oc1cccc(CN(CCCOc2ccc(F)cc2F)c2nc3ccccc3o2)c1)C(=O)O (centres undefined)", "OUTPUT UNIT": "nM", "EC50": 11}
{"COMPOUND": "CCC(Oc1cccc(CN(CCCOc2cccc([N+](=O)[O-])c2)c2nc3ccccc3o2)c1)C(=O)O (centres undefined)", "OUTPUT UNIT": "nM", "EC50": 24}
{"COMPOUND": "CCC(Oc1cccc(CN(CCCOc2ccccc2)c2nc3cccc(F)c3o2)c1)C(=O)O (centres undefined)", "OUTPUT UNIT": "nM", "EC50": 2}
{"COMPOUND": "CC(C)(Oc1cccc(CN(CCCOc2ccccc2)c2nc3ccccc3o2)c1)C(=O)O", "OUTPUT UNIT": "nM", "EC50": 190}
{"COMPOUND": "CCC(Oc1cccc(CN(CCCOc2ccc3c(c2)OCO3)c2nc3ccccc3o2)c1)C(=O)O (centres undefined)", "OUTPUT UNIT": "nM", "EC50": 7}

A. CCC(Oc1cccc(CN(CCCOc2ccc(F)c(F)c2)c2nc3ccccc3o2)c1)C(=O)O (centres undefined)
B. CC[C@H](Oc1cccc(CN(CCCOc2ccccc2)c2nc3ccccc3o2)c1)C(=O)O
C. CC(C)(Oc1cccc(CN(CCOc2ccccc2)c2nc3ccccc3o2)c1)C(=O)O
D. CCC(Oc1cccc(CN(CCCOc2ccc(C)c(C)c2)c2nc3ccccc3o2)c1)C(=O)O (centres undefined)
E. CCC(Oc1cccc(CN(CCCOc2ccccc2)c2nc3cc(C(F)(F)F)ccc3o2)c1)C(=O)O (centres undefined)
Sort (5 compounds) by EC50: min first. Give the labels in the order specified.
D, A, E, B, C
(D: 1 nM, A: 2 nM, E: 23 nM, B: 130 nM, C: 630 nM)

1. CCC(Oc1cccc(CN(CCCOc2ccccc2)c2nc3c(O)cccc3o2)c1)C(=O)O (centres undefined)
2. CCC(Oc1cccc(CN(CCCOc2ccc(F)cc2)c2nc3ccccc3o2)c1)C(=O)O (centres undefined)
3. CCC(Oc1cccc(CN(CCCOc2ccccc2)c2nc3cc(C)ccc3o2)c1)C(=O)O (centres undefined)
4. CCC(Oc1cccc(CN(CCCOc2ccccc2)c2nc3ccc(F)cc3o2)c1)C(=O)O (centres undefined)
Sort (4 compounds) by EC50: min first. Give the labels in the order specified.
4, 2, 3, 1

a. CCC(Oc1cccc(CN(CCCOc2ccc(S(=O)(=O)OC)cc2)c2nc3ccccc3o2)c1)C(=O)O (centres undefined)
b. CCC(Oc1cccc(CN(CCCOc2ccccc2)c2nc3ccccc3o2)c1)C(=O)O (centres undefined)
Kindly compare a with b and tell me which has the lower EC50 figure. Reply briefly: the label of your chosen item.
b
(b: 9 nM, a: 120 nM)
